logP by entry:
measuredQuantity: logP

# compound, numericReadout
measured = [
    ("O=C1c2c(O)cccc2C(SCCCc2ccccc2)c2cccc(O)c21", 4.78),
    ("CCOC(=O)CSC1c2cccc(O)c2C(=O)c2c(O)cccc21", 4.45),
    ("O=C1c2c(O)cccc2C(Sc2ccccc2O)c2cccc(O)c21", 3.92),
    ("O=C1c2c(O)cccc2C(SCCCS)c2cccc(O)c21", 4.33),
    ("CCOC(=O)CCSC1c2cccc(O)c2C(=O)c2c(O)cccc21", 4.59),
    ("CCCCOC(=O)CSC1c2cccc(O)c2C(=O)c2c(O)cccc21", 4.41),
    ("CCCSC1c2cccc(O)c2C(=O)c2c(O)cccc21", 4.57),
    ("O=C1c2c(O)cccc2C(SCc2ccccc2)c2cccc(O)c21", 4.87),
    ("O=C1c2c(O)cccc2C(SCCO)c2cccc(O)c21", 3.16),
    ("CCSC1c2cccc(O)c2C(=O)c2c(O)cccc21", 2.97),
    ("COc1ccccc1SC1c2cccc(O)c2C(=O)c2c(O)cccc21", 4.42),
    ("O=C1c2c(O)cccc2C(Sc2ccc(O)cc2)c2cccc(O)c21", 3.69),
    ("Nc1ccc(SC2c3cccc(O)c3C(=O)c3c(O)cccc32)cc1", 3.65),
    ("CCCCOC(=O)CCSC1c2cccc(O)c2C(=O)c2c(O)cccc21", 4.55),
    ("CC(SC1c2cccc(O)c2C(=O)c2c(O)cccc21)C(=O)O (stereo not given)", 2.77),
    ("O=C(O)CCSC1c2cccc(O)c2C(=O)c2c(O)cccc21", 3),
    ("O=C1c2c(O)cccc2C(Sc2ccccc2)c2cccc(O)c21", 4.54),
    ("O=C1c2c(O)cccc2C(SCC(O)CO)c2cccc(O)c21 (stereo not given)", 2.73),
    ("O=C1c2c(O)cccc2C(SCCc2ccccc2)c2cccc(O)c21", 4.97),
    ("COc1ccc(SC2c3cccc(O)c3C(=O)c3c(O)cccc32)cc1", 4.51),
    ("COC(=O)CSC1c2cccc(O)c2C(=O)c2c(O)cccc21", 3.53),
    ("Nc1ccccc1SC1c2cccc(O)c2C(=O)c2c(O)cccc21", 4.05),
    ("COc1cccc(SC2c3cccc(O)c3C(=O)c3c(O)cccc32)c1", 4.5),
    ("O=C(O)CSC1c2cccc(O)c2C(=O)c2c(O)cccc21", 2.35),
    ("COc1ccc(CSC2c3cccc(O)c3C(=O)c3c(O)cccc32)cc1", 4.83),
]

src = the SangsterLogP compilation
